# System: HeLa;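 further: High-content confocal imaging of branched-DNA amplified FISH in 384-well plates, Hoechst-defined nuclei, score is well value minus plate DMSO median over DMSO robust SD, four wells per compound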
# Protocol Summary: MALAT1 nuclear FISH intensity, robust Z-score vs DMSO; higher = more nuclear MALAT1 lncRNA, active = -3 or less
# Reported Conditions: 10 µM; 6 h
Measure: MALAT1 nuclear FISH intensity

> print(dat)
                                   compound  obs.value
1  Nc1ccn([C@H]2CC[C@@H](CO)O2)c(=O)n1 [Zalcitabine]    0.00319
2  O=C(O)C[C@H](O)C[C@H](O)/C=C/c1c(C2CC2)nc2ccccc2c1-c1ccc(F)cc1 [Pitavastatin Calcium]       1.41
3  NC(N)=Nc1nc(CSCC/C(N)=N/S(N)(=O)=O)cs1 [Famotidine]     -0.447
4  Cc1n[nH]c(C)c1Cc1sc2c(c1C(=O)N1C[C@H](O)CO1)c(=O)n(C)c(=O)n2CC(C)C      0.642
5  CCCCC/C=C\C/C=C\C/C=C\CCCCCCC(=O)O [Dihomo-gamma-linolenic acid]       1.18
